protocol: protein stability index of a GFP-peptide fusion (GPS, HEK-293T) (PSI 1-6); higher = more stable;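 note: 24-mer peptide tiles fused after GFP, lentivirally expressed, FACS-sorted into six equal bins by GFP/DsRed ratio, decoded by Illumina sequencing, PSI is the read-weighted mean bin number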
conditionDescription: treatment: MLN4924 1 uM, 8 h; c terminus: a fixed tail appended
Tick Y if protein stability index is 3 or greater. Tick N if protein stability index is less than 3.

Reference set, count: 8
| sequenceEntry | discreteLabel |
| --- | --- |
| HEALSRLWELCHLWLRPEVHTKEQ [ZNF396] | N |
| FRALAPMYYRGSAAAIIVYDITKE [RAB22A] | N |
| VRILLEHYYKENDPSVRLKIASLL [INTS4] | N |
| LETRFKIQQLLEPQQYMAFLPHHI [FBXO34] | N |
| KISKQFVAPADVRRLLSYCKGRDH [ZSWIM9] | N |
| PPPAYEPPAPAPLPPPSAPSLQPS [SCAMP3] | Y |
| DNLLLDAKGHVKLSDFGLCTGLKK [STK38L] | Y |
| PHLMQEHMGTNVIVANTMPTHLSN [HNF4A] | Y |

Task: # check: protein stability index of MAFLDKRLQVKEHQHEEIQNVRNH [ATL3] is greater than or equal to 3
Result: Y

Task: # repeat for GSRYDARRGVSDWDLRMKLHDRGA [DNAAF3]
Result: Y

Task: Continue with IWLDNLHCTGNEATLAACTSNGWG [LOXL2]
Result: N

Task: Entry MYFSQEEWELLDPTQKALYNDVMQ [ZNF75A] please
Result: Y

----------
protocol: protein stability index of a GFP-peptide fusion (GPS, HEK-293T) (PSI 1-6); higher = more stable
conditionDescription: treatment: DMSO; c terminus: a fixed tail appended
Listed next: entries and their corresponding protein stability index.
Response field accepts a number only; no unit should be typed.

| sequenceEntry | quantityName | measuredValue |
| --- | --- | --- |
| TARVIIPLLKDEGFAVKALWGRTQ [GFOD1] | protein stability index | 2.08 |
| SAVVQLYAADRNCMWSKKCSGVAC [WASL] | protein stability index | 2.36 |

Read the next record carefully.
Task: Quick one: protein stability index for DNLLLDAKGHVKLSDFGLCTGLKK [STK38L] ?
Result: 3.12

----------
protocol: protein stability index of a GFP-peptide fusion (GPS, HEK-293T) (PSI 1-6); higher = more stable
conditionDescription: treatment: MLN4924 1 uM, 8 h; c terminus: a fixed tail appended
Reported protein stability index values follow for various sequences
# output: bare number, no unit

| sequenceEntry | protein stability index |
| --- | --- |
| GGTSWTAYSLNKIHAYNLGTNAWE [KLHDC10] | 2.08 |

Task: # lookup: protein stability index of LDMELGPSQGQETNEVCEQAGGGA [ADAMTSL2]
Result: 5.27

Task: Query TIVKARDKLYHPECFMCSDCGLNL [PDLIM4] next
Result: 2.42

Task: Request: FIYDMCGSNYANFELDLGKKVLNL [PTPN9]
Result: 2.22

----------
protocol: protein stability index of a GFP-peptide fusion (GPS, HEK-293T) (PSI 1-6); higher = more stable
conditionDescription: treatment: DMSO; c terminus: a fixed tail appended
Measured protein stability index values are reported for all entries that follow.
Write the value as a bare number.

Past entries and their recorded results:
| sequenceEntry | protein stability index |
| --- | --- |
| KKHAAYAWPFYKPVDAEALELHDY [BRD3] | 2.97 |
| LTPKGGVRTSYQPSSPGRFTKETT [TRIM29] | 4.17 |
| VSYRGAWWYRNCHYANLNGLYGST [TNXB] | 2.49 |
| KYFGCELGAQTQFDVKNDRYIVNG [EIF5] | 3.08 |

Task: Fill blank: measured protein stability index of the sequence MKLEKEEFVTLKAIALANSDSMHI [ESRRG] is ____.
Result: 2.46

Task: Same again, this time with NKPGCEHECVNMEESYYCRCHRGY [MATN2]
Result: 4.3

Task: Another sequence: TTPIEEVKGLFKSENCPKVISCEF [LARP4]
Result: 2.9

Task: Can you check GAPLLPPPLPPPSPPGSGRGPGAS [ACBD3] next?
Result: 5.23

Task: Query TFAMVKGYFFPTSARDCKFTGNFF [DHCR7] next
Result: 2.56
